pIC50, Casein kinase I isoform epsilon (Homo sapiens), per-entry values.
pIC50: −log10 of the molar value.
QUANTITY KIND: pIC50

In [3]: df
Out[3]:
                        structure_as_smiles  observed_result
0   Cc1ccc2c(-c3ccncc3)c(-c3ccc(F)cc3)nn2c1             6.11
1  Nc1nc(Nc2ccc(S(N)(=O)=O)cc2)n(C(=S)Nc2c(F)cccc2F)n1           < 5.00
2  Cc1n[nH]c2ccc(-c3cc(OC[C@@H](N)Cc4ccccc4)cnc3-c3ccoc3)cc12             6.70
3  Cc1nc(N)sc1-c1ccnc(Nc2ccc(N3CCOCC3)cc2)n1            ~5.00
4  N#Cc1ccc2c(-c3ccncc3)c(-c3ccc(F)cc3)nn2c1           < 5.00
5  C[C@@H](N)c1ccc(C(=O)Nc2ccnc3[nH]ccc23)cc1           < 5.00

----------
Below, each of the compounds is paired with its reported IC50 value.
Molecular target: Casein kinase I isoform delta (Homo sapiens, UniProt P48730)
Sequence (P48730 whole entry, canonical isoform): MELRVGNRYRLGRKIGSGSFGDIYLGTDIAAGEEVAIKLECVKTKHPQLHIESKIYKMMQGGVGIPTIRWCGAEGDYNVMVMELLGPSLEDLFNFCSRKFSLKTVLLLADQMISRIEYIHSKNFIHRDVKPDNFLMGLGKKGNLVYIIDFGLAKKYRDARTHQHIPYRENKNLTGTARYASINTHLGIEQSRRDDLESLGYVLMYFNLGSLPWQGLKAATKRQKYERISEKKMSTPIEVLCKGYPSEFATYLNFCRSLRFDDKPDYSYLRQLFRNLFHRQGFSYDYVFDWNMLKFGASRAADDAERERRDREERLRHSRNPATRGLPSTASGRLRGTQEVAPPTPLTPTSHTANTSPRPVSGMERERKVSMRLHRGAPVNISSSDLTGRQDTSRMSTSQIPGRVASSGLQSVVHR
Assay type: cell-based, HEK293
QUANTITY KIND: IC50 (µM)

In [3]: df
Out[3]:
                        structure_as_smiles  relation_qualifier  observed_result
0   Cc1ccc2c(-c3ccncc3)c(-c3ccc(F)cc3)nn2c1                   =             0.23
1  Cc1n[nH]c2ccc(-c3cc(OC[C@@H](N)Cc4ccccc4)cnc3-c3ccoc3)cc12                   =              0.1
2  CC(C)[C@H](CO)Nc1nc(Nc2cc(N)cc(Cl)c2)c2ncn(C(C)C)c2n1                   >               10
3  C[C@@H](N)c1ccc(C(=O)Nc2ccnc3[nH]ccc23)cc1                   >               10
4  CC(C)(C)n1nc(Cc2cccc3ccccc23)c2c(N)ncnc21                   >               10
5  CNC(=O)c1nn(C)c2c1C(C)(C)Cc1cnc(Nc3ccc(N4CCN(C)CC4)cc3)nc1-2                   =              0.2
6  Cc1occc1-c1nc(N)c(OC[C@@H](N)Cc2c[nH]c3ccccc23)cc1-c1cc2c(C)n[nH]c2cn1                   =              1.4
7      c1ccc(-c2n[nH]cc2-c2ccnc3ccccc23)nc1                   =              2.8

----------
Molecular target: Serine/threonine protein kinase YCK2 (Candida albicans (strain SC5314 / ATCC MYA-2876) (Yeast))
Sequence (A0A1D8PKB4 whole entry): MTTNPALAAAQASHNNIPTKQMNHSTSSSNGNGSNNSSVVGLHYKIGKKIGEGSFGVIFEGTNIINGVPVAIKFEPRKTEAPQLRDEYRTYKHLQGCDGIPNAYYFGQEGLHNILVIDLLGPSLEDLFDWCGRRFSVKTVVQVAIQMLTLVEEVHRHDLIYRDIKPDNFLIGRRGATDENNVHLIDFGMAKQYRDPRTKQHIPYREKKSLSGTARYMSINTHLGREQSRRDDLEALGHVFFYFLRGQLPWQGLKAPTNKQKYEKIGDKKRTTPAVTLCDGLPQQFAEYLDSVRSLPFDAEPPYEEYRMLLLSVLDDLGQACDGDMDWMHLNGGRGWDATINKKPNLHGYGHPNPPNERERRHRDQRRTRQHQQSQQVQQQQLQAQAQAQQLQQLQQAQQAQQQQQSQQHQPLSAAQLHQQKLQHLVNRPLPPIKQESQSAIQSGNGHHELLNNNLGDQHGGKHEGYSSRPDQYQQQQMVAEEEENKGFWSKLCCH
pIC50: −log10 of the molar value.
Below, each of the compounds is paired with its reported pIC50 value.
QUANTITY KIND: pIC50

>>> df
                        structure_as_smiles  quantity_kind  relation_qualifier  observed_result
0  CC(C)(C)c1cnc(CSc2cnc(NC(=O)C3CCNCC3)s2)o1          pIC50                   <             5.10
1  CC(C)[C@H](CO)Nc1nc(Nc2cc(N)cc(Cl)c2)c2ncn(C(C)C)c2n1          pIC50                   <             5.10
2  CC(C)(C)n1nc(Cc2cccc3ccccc23)c2c(N)ncnc21          pIC50                   <             5.10
3  CN1CCC(F)(Cn2cnc(-c3ccc(F)cn3)c2-c2ccnc3[nH]ccc23)CC1          pIC50                   =             6.19
4  Nc1nc(Nc2ccc(S(N)(=O)=O)cc2)n(C(=S)Nc2c(F)cccc2F)n1          pIC50                   =             6.33
5  C[C@@H](N)c1ccc(C(=O)Nc2ccnc3[nH]ccc23)cc1          pIC50                   <             5.10
6  Cc1occc1-c1nc(N)c(OC[C@@H](N)Cc2c[nH]c3ccccc23)cc1-c1cc2c(C)n[nH]c2cn1          pIC50                   =             6.74
7  CNC(=O)c1nn(C)c2c1C(C)(C)Cc1cnc(Nc3ccc(N4CCN(C)CC4)cc3)nc1-2          pIC50                   =             6.11
